- Test system: HLA-A2.1 transgenic mice
- run_parameters: mouse, in vivo
result_type: tetramer response

// known answers, use as guide
substance	test_value
LLSAGIFGV [27_neoA]	high
SLIAYTMSV [40_neoA]	medium
YLYALVYFV [54_neoA]	high
SMWALIISV [42_wt]	high
FLLNKEMYL [8_wt]	medium

State recorded tetramer response for all listed substances.
1. FTAHIQWMV [7_neoB]
2. FMAGLIAIV [6_neoB]

1. medium
2. medium

State recorded tetramer response for all listed substances.
1. MLAKALRKV [30_wt]
2. LLLDRLNQV [25_neoA]
3. ALSKGVHFV [3_wt]
4. WLMWLIINL [49_wt]
5. VSFLHVTYV [48_neoB]
6. KLSYGIATE [22_neoB]
7. YLMADLVYT [55_neoB]

1: high; 2: medium; 3: medium; 4: high; 5: high; 6: high; 7: medium

State recorded tetramer response for all listed substances.
1. LLLPQGTTV [29_neoA]
2. CLEASFNYV [5_neoA]
3. RLNQLESKV [39_neoA]
4. AVSKGVHFI [3_neoB]
5. RTMTWLDMI [37_neoB]
6. GLMWLSYFV [14_neoA]

medium
medium
medium
medium
high
medium

State recorded tetramer response for all listed substances.
1. SAPGVFCGV [41_neoB]
2. LLLTILTSV [26_neoA]
3. RLNEVAKNV [38_neoA]

high
medium
high

State recorded tetramer response for all listed substances.
1. YLNSTNVTV [51_neoA]
2. RLMTWLDMV [37_neoA]
3. KLADYNYKV [19_neoA]
4. FLAGLIAIV [6_neoA]
5. VVFLHVTYV [48_wt]
6. LLTGRLQSV [24_neoA]
7. GLSRIGMEV [15_neoA]
8. VLPTKLNDV [47_neoA]

1. high
2. high
3. low
4. high
5. high
6. high
7. high
8. medium

State recorded tetramer response for all listed substances.
1. VLMAPISAV [46_neoA]
2. LVSAGIFGV [27_neoB]
3. LALLLLDRL [23_wt]
4. l_neoA (ALNTLVKQV)
5. NLNESLIDL [34_wt]
6. KLKDCVMYA [20_wt]
7. NLIDSYFVV [32_wt]

medium
high
medium
high
medium
medium
medium

State recorded tetramer response for all listed substances.
1. VLFLHVTYV [48_neoA]
2. LLWLIINLV [28_neoA]
3. GTSRIGMEV [15_neoB]

high
high
high

State recorded tetramer response for all listed substances.
1. QLEMELTPV [36_wt]
2. NLLKDCPAV [33_wt]
3. SAWALIISV [42_neoB]

medium
medium
high

* * *

- Tested on: HLA-A2.1 transgenic mice
- run_parameters: mouse, in vivo
result_type: Trm (response)

// known answers, use as guide
sequence_chain	Trm (response)
NLIDSYFVV [32_wt]	Yes
FLLNKEMYL [8_wt]	No
LVSAGIFGV [27_neoB]	Yes
VLPTKLNDV [47_neoA]	Yes
LLLPQGTTV [29_neoA]	Yes

State recorded Trm (response) for all listed sequences.
1. SAPGVFCGV [41_neoB]
2. VSFLHVTYV [48_neoB]

1. No
2. Yes

* * *

- Tested on: HLA-A2.1 transgenic mice
- run_parameters: mouse, in vivo
result_type: Trm (response)

// known answers, use as guide
substance	test_value
VLFLHVTYV [48_neoA]	No
VVFLHVTYV [48_wt]	No
MLAKALRKV [30_wt]	No
QLEMELTPV [36_wt]	Yes
LLLTILTSV [26_neoA]	Yes

State recorded Trm (response) for all listed substances.
1. GLMWLSYFV [14_neoA]
2. LLWLIINLV [28_neoA]
3. l_neoA (ALNTLVKQV)
4. ALSKGVHFV [3_wt]
5. FLAGLIAIV [6_neoA]
6. SMWALIISV [42_wt]

No
No
Yes
No
Yes
Yes

* * *

- Tested on: HLA-A2.1 transgenic mice
- run_parameters: mouse, in vivo
result_type: Trm (response)

// known answers, use as guide
sequence_chain	Trm (response)
LALLLLDRL [23_wt]	Yes
LLSAGIFGV [27_neoA]	No
RTMTWLDMI [37_neoB]	No
CLEASFNYV [5_neoA]	Yes
SAWALIISV [42_neoB]	Yes

Please turn your attention to the following entry.
Dear colleague, I am looking for the recorded Trm (response) of the following sequence: RLMTWLDMV [37_neoA]
No
